FYI, the data here is from patent US20260125375A1.

- Subject Of Test: CBL-B (Homo sapiens, UniProt Q13191)
- Construct: endogenous in cells; host or cells: Jurkat HiBit-IL2 reporter cells, C-CBL knocked out by CRISPR
- Sequence (Q13191 whole entry): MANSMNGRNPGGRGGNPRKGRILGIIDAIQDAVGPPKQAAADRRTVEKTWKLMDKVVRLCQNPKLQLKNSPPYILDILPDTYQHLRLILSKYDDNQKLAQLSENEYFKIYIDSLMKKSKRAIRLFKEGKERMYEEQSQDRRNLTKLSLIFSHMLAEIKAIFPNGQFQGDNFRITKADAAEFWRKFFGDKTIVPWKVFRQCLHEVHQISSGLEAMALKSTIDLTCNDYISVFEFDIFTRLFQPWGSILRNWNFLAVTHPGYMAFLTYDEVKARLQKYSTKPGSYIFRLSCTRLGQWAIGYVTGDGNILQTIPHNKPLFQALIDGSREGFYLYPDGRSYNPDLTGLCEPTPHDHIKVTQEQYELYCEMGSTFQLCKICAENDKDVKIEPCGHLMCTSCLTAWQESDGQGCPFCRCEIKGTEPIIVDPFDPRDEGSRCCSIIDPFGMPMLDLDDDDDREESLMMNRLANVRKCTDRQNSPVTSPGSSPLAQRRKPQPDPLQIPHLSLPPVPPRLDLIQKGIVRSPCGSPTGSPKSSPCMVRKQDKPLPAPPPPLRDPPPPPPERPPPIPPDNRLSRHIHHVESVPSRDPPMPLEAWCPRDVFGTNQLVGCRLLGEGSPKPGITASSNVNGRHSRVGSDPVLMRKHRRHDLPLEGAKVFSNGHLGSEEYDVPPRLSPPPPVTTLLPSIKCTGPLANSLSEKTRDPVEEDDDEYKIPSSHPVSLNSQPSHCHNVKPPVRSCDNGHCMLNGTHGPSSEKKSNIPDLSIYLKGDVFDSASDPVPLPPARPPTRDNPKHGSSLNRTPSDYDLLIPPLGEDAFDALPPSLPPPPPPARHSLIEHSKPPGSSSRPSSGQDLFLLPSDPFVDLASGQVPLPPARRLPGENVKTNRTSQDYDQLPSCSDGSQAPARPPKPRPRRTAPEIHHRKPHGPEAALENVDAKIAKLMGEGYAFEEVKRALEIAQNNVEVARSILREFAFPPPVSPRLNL
- Assay Name: Jurkat HiBit-IL2 assay (c-CBL KO), reporter cell line expressing CBL-B only
- Format: cell-based
- Experimental Conditions: c-CBL KO (CBL-B only), anti-CD3/anti-CD28 stimulation 4 hours, geometric mean, Table 16a, read-out: C-CBL KO EC50 (nM) GMean
The following compounds are listed with their measured log10 of EC50 values.
Quantity Measured: log10 of EC50 (log10 of the value in nM)

> print(dat)
                                   compound                       subject.of.test  readout.value
1  C[C@H](NC[C@@H](C)O)c1nc(C(F)(F)F)cc2c(-c3cccc([C@H](c4nncn4C)C4CCC4)c3)n[nH]c12 (single isomer, unassigned)  CBL-B (Homo sapiens, UniProt Q13191)           1.30
2  CC(NC1CCCC1)c1nc(C(F)(F)F)cc2c(-c3cccc([C@H](c4nncn4C)C4CCC4)c3)n[nH]c12 (stereo partly drawn)  CBL-B (Homo sapiens, UniProt Q13191)           0.60
3  C[C@@H](c1nc(C(F)(F)F)cc2c(-c3cccc(C4(Cc5nncn5C)COC4)c3)n[nH]c12)N1CC[C@@H](F)C1 (single isomer, unassigned)  CBL-B (Homo sapiens, UniProt Q13191)           2.80
4  Cn1cnnc1[C@@H](c1cccc(-c2n[nH]c3c(CN[C@H]4CCC[C@@H]4O)nc(C(F)(F)F)cc23)c1)C1CCC1  CBL-B (Homo sapiens, UniProt Q13191)           2.06
5  C[C@@H](O)CN[C@H](C)c1nc(C(F)(F)F)cc2c(-c3cccc([C@H](c4nncn4C)C4CCC4)c3)n[nH]c12 (single isomer, unassigned)  CBL-B (Homo sapiens, UniProt Q13191)           0.95
6  C[C@@H](NC1CCCC1)c1nc(C(F)(F)F)cc2c(-c3cccc(C4(Cc5nncn5C)COC4)c3)n[nH]c12 (single isomer, unassigned)  CBL-B (Homo sapiens, UniProt Q13191)           1.63
